B1: HDAC6 (parent)
chain: QYMNEGELRVLADTYDSVYLHPNS

# Variants of: B1
# METHOD SUMMARY: protein stability index of a GFP-peptide fusion (GPS, HEK-293T) (PSI 1-6); higher = more stable;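 further: lentivirally expressed fusions sorted by FACS into six bins by GFP to DsRed ratio, PSI derived from sequencing read proportions per bin multiplied by bin number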
# ASSAY SETUP: c terminus: a fixed tail appended

>  <POLYMER SEQUENCE>
QYMNEGELRVLADTYESVYLHPNS [D16E]

>  <protein stability index>
2.42

$$$$
>  <POLYMER SEQUENCE>
QYMNEGELRVLATTYDSVYLHPNS [D13T]

>  <protein stability index>
2.08

$$$$
>  <POLYMER SEQUENCE>
QYMNEGELRVGADTYDSVYLHPNS [L11G]

>  <protein stability index>
2.46

$$$$
>  <POLYMER SEQUENCE>
QYMNEGELRVLADTIDSVYLHPNS [Y15I]

>  <protein stability index>
1.81

$$$$
>  <POLYMER SEQUENCE>
QYMNEGEWRVLADTYDSVYLHPNS [L8W]

>  <protein stability index>
1.33

$$$$
>  <POLYMER SEQUENCE>
QSMNEGELRVLADTYDSVYLHPNS [Y2S]

>  <protein stability index>
2.71

$$$$
>  <POLYMER SEQUENCE>
QYMNEGELRVLADHYDSVYLHPNS [T14H]

>  <protein stability index>
2.73

$$$$
>  <POLYMER SEQUENCE>
QYMNEGELRVLADTYDSVYLHWNS [P22W]

>  <protein stability index>
2.56

$$$$
>  <POLYMER SEQUENCE>
QYMNSGELRVLADTYDSVYLHPNS [E5S]

>  <protein stability index>
1.92

$$$$
>  <POLYMER SEQUENCE>
QYMNEGELRVLADSYDSVYLHPNS [T14S]

>  <protein stability index>
2.04

$$$$
>  <POLYMER SEQUENCE>
QYMNEGELRVLADTYDSEYLHPNS [V18E]

>  <protein stability index>
3.18

$$$$
>  <POLYMER SEQUENCE>
QYMNEGELRVLADTADSVYLHPNS [Y15A]

>  <protein stability index>
2.75

$$$$
>  <POLYMER SEQUENCE>
QYMNEGELRGLADTYDSVYLHPNS [V10G]

>  <protein stability index>
3.15

$$$$
>  <POLYMER SEQUENCE>
QYMNEGELRVLNDTYDSVYLHPNS [A12N]

>  <protein stability index>
1.92

$$$$
>  <POLYMER SEQUENCE>
QYINEGELRVLADTYDSVYLHPNS [M3I]

>  <protein stability index>
3.39

$$$$
>  <POLYMER SEQUENCE>
QYMNEGELRVLADTYDSVSLHPNS [Y19S]

>  <protein stability index>
2.14

$$$$
>  <POLYMER SEQUENCE>
QYMNEGELRVLHDTYDSVYLHPNS [A12H]

>  <protein stability index>
2.31

$$$$
>  <POLYMER SEQUENCE>
QYMNEGEYRVLADTYDSVYLHPNS [L8Y]

>  <protein stability index>
2.96

$$$$
>  <POLYMER SEQUENCE>
QYMNEIELRVLADTYDSVYLHPNS [G6I]

>  <protein stability index>
1.72

$$$$
>  <POLYMER SEQUENCE>
QYMNEGELRVLADTYDSVYLLPNS [H21L]

>  <protein stability index>
1.71

$$$$
>  <POLYMER SEQUENCE>
QNMNEGELRVLADTYDSVYLHPNS [Y2N]

>  <protein stability index>
4.07

$$$$
>  <POLYMER SEQUENCE>
QYPNEGELRVLADTYDSVYLHPNS [M3P]

>  <protein stability index>
4.02

$$$$

Taken from the supplement of paper PMC10567573.
